// data source = PubChem BioAssay (NCI)

A collection of molecules and their measured TGI
Tested on: CCRF-CEM leukemia
protocol description: NCI tumour cell line growth inhibition, 48 h

{"smiles structure": "Cc1ccc(S(=O)(=O)NC(=O)NNc2ccc(F)cc2)cc1", "TGI": "> 100 µM"}
{"smiles structure": "COC(=O)CCC1=C(CC(=O)OC)C(C)=N/C1=C\\c1[nH]c(-c2ccc[nH]2)cc1OC", "TGI": "29.8 µM"}
{"smiles structure": "N#Cc1c(C#N)c(-c2ccccc2)n(-c2ccccc2)c1N", "TGI": "> 100 µM"}

---

Test system: SK-OV-3 ovarian
protocol description: NCI tumour cell line growth inhibition, 48 h
outcome measure: GI50

{"compound": "S=C1SC2=Nc3ccccc3CN2C2=NCCN12", "assayed target": "SK-OV-3 ovarian", "outcome measure": "GI50", "test value": "> 100 µM"}
{"compound": "COC(=O)c1cc(/C=C/c2ccc(S(N)(=O)=O)cc2)ccc1O", "assayed target": "SK-OV-3 ovarian", "outcome measure": "GI50", "test value": "> 100 µM"}
{"compound": "COc1ccc2c(Oc3ccc(NC(=O)c4c(C)n(CC(C)(C)O)n(-c5ccccc5)c4=O)nc3)ccnc2c1", "assayed target": "SK-OV-3 ovarian", "outcome measure": "GI50", "test value": "6.06 µM"}
{"compound": "COc1ccc(Cc2cnc(NC(=O)c3ccc4c(c3)OCCO4)s2)cc1", "assayed target": "SK-OV-3 ovarian", "outcome measure": "GI50", "test value": "0.0321 µM"}
{"compound": "O=C(NO)c1ccc(CN(c2cnccn2)c2cnccn2)cc1", "assayed target": "SK-OV-3 ovarian", "outcome measure": "GI50", "test value": "14.6 µM"}
{"compound": "O=c1oc2ccc(Br)cc2c(=O)n1-c1ccc(F)cc1F", "assayed target": "SK-OV-3 ovarian", "outcome measure": "GI50", "test value": "0.398 µM"}
{"compound": "COc1ccc(-c2csc(NC(=O)CSc3nc(C)c(-c4ccccc4)n3Nc3ccccc3)n2)cc1", "assayed target": "SK-OV-3 ovarian", "outcome measure": "GI50", "test value": "> 100 µM"}
{"compound": "c1csc(-c2c3ccc(=[N+]4CCCCC4)cc-3oc3cc(N4CCCCC4)ccc23)c1", "assayed target": "SK-OV-3 ovarian", "outcome measure": "GI50", "test value": "0.212 µM"}
{"compound": "Nc1ccccc1SC1CC(=O)N(c2ccc(Cl)c(Cl)c2)C1=O (stereo not given)", "assayed target": "SK-OV-3 ovarian", "outcome measure": "GI50", "test value": "17.6 µM"}
{"compound": "C[C@H]1CCC/C=C/[C@@H]2C[C@H](O)C[C@H]2[C@H](O)[C@@H](SCC(O)CO)CC(=O)O1 (stereo not given in full)", "assayed target": "SK-OV-3 ovarian", "outcome measure": "GI50", "test value": "34.7 µM"}

---

Tested on: NCI-H226 lung
protocol description: NCI tumour cell line growth inhibition, 48 h
# TGI listing for each entry below
outcome measure: TGI

{"compound": "O=C1CCCc2cc3c(cc21)CC1(C3)Cc2ccc3c(c2C1)C(=O)CCC3 (stereo not drawn)", "outcome measure": "TGI", "test value": "90.1 µM"}
{"compound": "c1ccc(-c2cnc(-c3ccc(-c4ncc(-c5ccccc5)o4)cc3)o2)cc1", "outcome measure": "TGI", "test value": "> 100 µM"}
{"compound": "C/C(CCn1[nH]c(=O)ccc1=O)=N\\OCCCc1ccccc1", "outcome measure": "TGI", "test value": "> 100 µM"}
{"compound": "CCCCN(CCCC)C(=C(C(Cl)=C(Cl)Cl)[N+](=O)[O-])N(CCCC)CCCC", "outcome measure": "TGI", "test value": "> 100 µM"}
{"compound": "COc1ccc2c3c(Nc4ccc(/C(C)=N/O)cc4)[nH]c4ccccc4c-3c(N=O)c2c1", "outcome measure": "TGI", "test value": "38.3 µM"}
{"compound": "CCc1nc2cc3cccnc3c(Cl)c2[nH]c1=O", "outcome measure": "TGI", "test value": "> 100 µM"}
{"compound": "N.N.NCCCCCCCCCN.O=C([O-])CC(=O)[O-].O=C([O-])CC(=O)[O-].[Pt+4].[Pt+4]", "outcome measure": "TGI", "test value": "> 100 µM"}
{"compound": "Nc1nc(Nc2ccccc2)sc1C(=O)c1c[nH]c2ccccc12", "outcome measure": "TGI", "test value": "29.7 µM"}
{"compound": "COc1cc(C(=O)N2CCc3c([nH]c4c([N+](=O)[O-])c(OC)ccc34)C2C)cc(OC)c1OC (stereo not drawn)", "outcome measure": "TGI", "test value": "> 100 µM"}
{"compound": "Cc1cc2nc(-c3cc(C(C)(C)C)c(O)c(C(C)(C)C)c3)[nH]c2cc1C", "outcome measure": "TGI", "test value": "> 100 µM"}
{"compound": "c1ccc(CSc2nc3ccccc3nc2-c2cccs2)cc1", "outcome measure": "TGI", "test value": "> 100 µM"}
{"compound": "N#CCCN(CCC#N)c1ccc(/C=C2\\SC(=S)NC2=O)cc1Br", "outcome measure": "TGI", "test value": "> 100 µM"}
{"compound": "C/C(=N\\NC(=S)N1CC2CCC(CC2)C1)c1ccccn1", "outcome measure": "TGI", "test value": "1.91 µM"}
{"compound": "O=C(O)c1c2c(cc3c1CC1(Cc4ccccc4C1=O)C3)CCC2 (stereo not drawn)", "outcome measure": "TGI", "test value": "> 85.8 µM"}
{"compound": "COc1cc(C(=O)C/C(CCC(=O)Nc2ccc(Cl)cc2Cl)=N/NC(=O)C(=O)NN)ccc1O", "outcome measure": "TGI", "test value": "> 100 µM"}
{"compound": "COc1ccccc1N1CCN(CCCNC(=O)c2cc(Cl)c(N)c(Cl)c2)CC1", "outcome measure": "TGI", "test value": "98 µM"}
{"compound": "COC(=O)c1cccc2cccc(C(=O)Nc3ccc(Cl)cc3)c12", "outcome measure": "TGI", "test value": "> 100 µM"}
{"compound": "CCOc1ccccc1NC(=O)C(=O)Cc1nc2ccccc2s1", "outcome measure": "TGI", "test value": "> 100 µM"}
